Target sequence: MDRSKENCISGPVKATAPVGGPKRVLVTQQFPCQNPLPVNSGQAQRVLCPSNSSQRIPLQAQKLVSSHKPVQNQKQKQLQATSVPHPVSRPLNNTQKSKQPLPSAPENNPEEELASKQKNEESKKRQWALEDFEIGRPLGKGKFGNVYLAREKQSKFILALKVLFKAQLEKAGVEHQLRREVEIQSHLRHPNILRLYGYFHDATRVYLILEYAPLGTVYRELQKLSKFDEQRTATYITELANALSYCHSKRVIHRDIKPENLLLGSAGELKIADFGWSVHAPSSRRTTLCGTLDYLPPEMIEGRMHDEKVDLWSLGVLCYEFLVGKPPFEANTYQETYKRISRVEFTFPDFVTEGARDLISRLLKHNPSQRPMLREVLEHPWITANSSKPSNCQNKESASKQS
measure-name: pIC50
Note on pIC50: it is the negative log10 of concentration, concentration in mol/L.

# query: pIC50 of entry CN(CCN1CCCCC1)c1ccc2c(c1)S/C(=C(/C(N)=O)c1nccc(C(F)(F)F)n1)N2 [Compound 125A]
7.52

# query: pIC50 of entry CCN(CCCN1CCOCC1)C(=O)c1ccc2c(c1)N/C(=C(/C(N)=O)c1nccc(C(F)(F)F)n1)N2 [Compound 41A]
8.22

# query: pIC50 of entry CCN1CCN(CCCNC(=O)c2ccc3c(c2)S/C(=C(/C(N)=O)c2nccc(C(F)(F)F)n2)N3)CC1 [Compound 56A]
7.70

====

# Test system: HCT116 (human colon carcinoma) cells
# assay-procedure: HCT116 cytotoxicity assay (CellTiter-Glo)
# Type: cell-based
# setup-conditions: HCT-116, 72 h, cytotoxicity, three days culture, read-out: HCT116 IC50
Threshold 900 nM: IC50 strictly smaller gives yes (1), otherwise no (0).

I'd appreciate it if you could check whether NC(=O)/C(=C1\Nc2ccc(C(=O)NCCN3CCOCC3)cc2S1)c1nccc(C(F)(F)F)n1 [Compound 54A] has IC50 smaller than 900 nM.
yes (1)

I'd appreciate it if you could check whether NC(=O)/C(=C1\Nc2cc(NC(=O)Cn3ccnc3)ccc2S1)c1nccc(C(F)(F)F)n1 [Compound 88A] has IC50 smaller than 900 nM.
yes (1)

I'd appreciate it if you could check whether NC(=O)/C(=C1\Nc2ccc(CCn3ccnc3)cc2N1)c1nccc(C(F)(F)F)n1 [Compound 96A] has IC50 smaller than 900 nM.
yes (1)

I'd appreciate it if you could check whether NC(=O)/C(=C1\Nc2ccc(OCCN3CCOCC3)cc2S1)c1nccc(C(F)(F)F)n1 [Compound 111A] has IC50 smaller than 900 nM.
no (0)

I'd appreciate it if you could check whether CN(C)CCOc1ccc2c(c1)S/C(=C(/C(N)=O)c1nccc(C(F)(F)F)n1)N2 [Compound 116A] has IC50 smaller than 900 nM.
yes (1)

I'd appreciate it if you could check whether NC(=O)/C(=C1\Nc2ccc(C(=O)N3CCC(N)CC3)cc2S1)c1nccc(C(F)(F)F)n1 [Compound 67A] has IC50 smaller than 900 nM.
yes (1)

I'd appreciate it if you could check whether CCN(CCO)C(=O)c1ccc2c(c1)S/C(=C(/C(N)=O)c1nccc(C(F)(F)F)n1)N2 [Compound 31A] has IC50 smaller than 900 nM.
yes (1)

I'd appreciate it if you could check whether NCCCNC(=O)c1ccc2c(c1)N/C(=C(/C(N)=O)c1nccc(C(F)(F)F)n1)N2 [Compound 64A] has IC50 smaller than 900 nM.
no (0)

I'd appreciate it if you could check whether NC(=O)/C(=C1\Nc2ccc(C(=O)NCCN3CCC(F)(F)CC3)cc2N1)c1nccc(C(F)(F)F)n1 [Compound 51A] has IC50 smaller than 900 nM.
yes (1)

I'd appreciate it if you could check whether CN1CCC[C@H]1C(=O)Nc1ccc2c(c1)N/C(=C(/C(N)=O)c1nccc(C(F)(F)F)n1)N2 [Compound 77A] has IC50 smaller than 900 nM.
yes (1)

I'd appreciate it if you could check whether CN1CCN(C(=O)c2ccc3c(c2)S/C(=C(/C(N)=O)c2nccc(C(F)(F)F)n2)N3)CC1 [Compound 59A] has IC50 smaller than 900 nM.
yes (1)

I'd appreciate it if you could check whether CCN(CC)CC(=O)N(CC)c1ccc2c(c1)N/C(=C(/C(N)=O)c1nccc(C(F)(F)F)n1)N2 [Compound 139A] has IC50 smaller than 900 nM.
yes (1)

I'd appreciate it if you could check whether Cc1cc(C(F)(F)F)nc(/C(C(N)=O)=C2/Nc3ccccc3S2)n1 [Compound 8A] has IC50 smaller than 900 nM.
no (0)

I'd appreciate it if you could check whether NC(=O)/C(=C1\Nc2ccc(CCN3CCOCC3)cc2S1)c1nccc(C(F)(F)F)n1 [Compound 101A] has IC50 smaller than 900 nM.
no (0)

I'd appreciate it if you could check whether NC(=O)C(=C1Nc2cc(F)c(F)cc2N1)c1nccc(C(F)(F)F)n1 [Compound 38A] has IC50 smaller than 900 nM.
yes (1)

I'd appreciate it if you could check whether COc1ccnc(/C(C(N)=O)=C2/Nc3ccc(CN4CCOCC4)cc3S2)n1 [Compound 92A] has IC50 smaller than 900 nM.
no (0)

I'd appreciate it if you could check whether NC(=O)/C(=C1\Nc2ccc(CCc3cccnc3)cc2S1)c1nccc(C(F)(F)F)n1 [Compound 99A] has IC50 smaller than 900 nM.
no (0)
